System: K4 kissing-loop RNA reporter
Assay: apparent KD of K4 kissing-loop reporter; higher = weaker reporter binding
Conditions: Eterna round: R107; input ligand: arginine 13.2 mM
Measured Endpoint: apparent KD of K4 kissing-loop reporter (nM)
Write down the numeric answer in nM and omit the unit.

Completed entries (count: 5):
Missing value: apparent KD of K4 kissing-loop reporter, K4 kissing-loop RNA reporter, entry AAGAGCUAGGCGGCCGCCACUAGAUGUGAACACAUACAAACCAGUGAUGUUGGUAUGAUGGACAGUAGGACCGGGCCUAGCUGAA [Exclusion - Tryptophan B (Freestyle 10)] . Fill in?
585

Enter reported apparent KD of K4 kissing-loop reporter observed with K4 kissing-loop RNA reporter for GAAUUAAUGUCUUUAAUAUAAUAAUCAGAUACCAGUGAUUUGUGACACCCUUGGCAGCUGUAUAGAGUGAUGUUCUUAUACAUAA [#12 K4 Theophylline A Exclusion]
460

Param readout= apparent KD of K4 kissing-loop reporter; system= K4 kissing-loop RNA reporter; entry= AGGUACAAAAGUACCGCUAGAUCCACGGAAGGAGCGCCCGAAAGGGCAGGUAGGUCGCCGGGCAGUGAUGUUGCCGGAUCUAGCA [Omei KL Arginine A SS A v6] ; returns value.
163

Can you look up apparent KD of K4 kissing-loop reporter on K4 kissing-loop RNA reporter for CGCAUACCUGCGCUAGUAGUGAUGUUACAGCGAGGACCGGUACGGCCGCCACUCGUGACGGUCGCAAAACGCGUUGCAGAACACU [theeternabot_exclusion_KL_Trp_A_32] ?
183

Item UUUCGUUUCGUCUGACAUAAUUGGCUAGAAGGAGCGGUAAAAUUACCAGGUAGGUCGCUAGCCCAGUGAUGUUGGGACUAGCGUA [Edries] with K4 kissing-loop RNA reporter - apparent KD of K4 kissing-loop reporter?
107

---
Under K4 kissing-loop RNA reporter: apparent KD of K4 kissing-loop reporter value of AAAUAUAGUGAUGUUAUAUAUAUAUGUGAUACCAGAGAAAGAAAACUCCCUUGGCAGCACGAGAGAGAAUUUUUUUUUUAUAUAU [AstrosSSTheA#1] ?
398

What value of apparent KD of K4 kissing-loop reporter on K4 kissing-loop RNA reporter does GCCCGGGCGAGUGAUGUUCGCCCACGUGAUACCAGUGCCAUCCAACACCCUUGGCAGCACGCGGGCAGUGAUGUUGCCCUUGUAU [Exclusion Theophylline A GF 4] have?
110

Look up apparent KD of K4 kissing-loop reporter with K4 kissing-loop RNA reporter for this sequence: UGUAUGUGAUUUGAUACCAGACCAGCUGGUGGAUCACGAGUGAUGUUCGUGUUGGUUUGGGUCCCUUGGCAGCAAAUCGCAUACU [KL-SSTheoB13]
151

# query: apparent KD of K4 kissing-loop reporter | item UGACUGGACUGAAGGAGCGCGCGAGACAAAGUCUCGAACUGCUAGUGAUGUUAGCAAAUAACGCAGGUAGGUCGCAGUCUAGUCU [ArgBS 11 #SwitchBubble #StaticStem #DoubleMagnet] | system: K4 kissing-loop RNA reporter
100

// lookup apparent KD of K4 kissing-loop reporter | system=K4 kissing-loop RNA reporter | key= ACGUGCACCAGUGAUGUUGGAAAAUAUGAAGGAGCGGGAGAAAGCCCAGGUAGGUCGCAUAAUAGCACGAGCCACGAAAGUGGCA;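 also: bound reporter read as fluorescence of individual clusters on recovered sequencing chips by microscopy, with normalized cluster intensities fitted with a binding model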
145

apparent KD of K4 kissing-loop reporter of GUCCCAGUGAUGUUGGUAGGCGAGCGGGAUACCAGCGAAGACUCACGCCCUUGGCAGCCCACAUAUCCCGCGUAGGGAUUAGCUC [Same State - Theophylline A (Freestyle 21)] on K4 kissing-loop RNA reporter?
315

====

Tested on: MS2 coat protein
Assay: apparent KD of MS2 coat protein, switch ON state; designed switch direction (-1 OFF switch, 1 ON switch): -1; higher = weaker reporter binding
Details: FMN input: 0 or 200 uM; Eterna round: R93 (includes R88 designs)
Listed below: apparent KD of MS2 coat protein values for each entry.
# number only, unit nM dropped from output

For orientation, consider the following solved cases.
Fill blank: measured apparent KD of MS2 coat protein of the sequence AACAAGUCAGGAUAUGCGAACAGAAAAUAAGCUACACAAAAGCAGAAGGGACAUGAGGAUCACCCAUGUAAAUA [JR_Exc004_Sub501] is ____.
49.9

For the sequence AACAGGACAGGAUAUACAUGAGGAUCACCCAUGUGAGAAUUUAGCAGCGUACCACACAGUAGAAGGGUCAUGGA [Ruby 23] , what apparent KD of MS2 coat protein is on record?
40.8

Entry AAAAAGUGAGGAUAUGCGAAGGCGUCUGAUAGACGAGGCUAGCAGAAGGCACAUGAGGAUCACCCAUGUGGGAG [Mat - Exclusion 4 - Eli mod - D93] : reported apparent KD of MS2 coat protein = ?
71.5

State the recorded apparent KD of MS2 coat protein for this entry: AAAAAACAUGAGGAUCACCCAUGUGAGGAUAUCCAAAAGUUAAAGAAAAAGACGAAAAGGAGAAGGCGCAAAAA [Fiskers Exclusion D3]
68.7

Sample CUCAUGUUAGGAUAUUUAUGAAAUGAAGUGAAAGAAAAGAAAAAGAAGGAACAUGAGGAUCACCCAUGUUAGAA [EteRNA is fun!] — what was its apparent KD of MS2 coat protein?
65.2

Entry under review: CUCUAGUGAGGAUAUGGAAGAAAAGAAAAGAAAGAAAAGAACCAGAAGGCACAUGAGGAUCACCCAUGUAAGAA [EteRNA is fun!] . Reported apparent KD of MS2 coat protein?
47.7

Give its apparent KD of MS2 coat protein value. Item: GGUUGAGAAGGAUAUACAUGAGGAUCACCCAUGUGAGAGAAAAAAGUGAGAAAGAAAAGUAGAAGGUCUUGACG [salish99-ex3-63]
29

For UAAAAGUGAGGAUAUGUCAAAAGUCACAAAAGUGACAAAAGACAGAAGGCACAUGAGGAUCACCCAUGUGAAAU [Mat - Exaclusion 4 - Eli mod - D56] , what is its reported apparent KD of MS2 coat protein?
23.3

Would you kindly share the measured apparent KD of MS2 coat protein for AAAAAGUGAGGAUAUACGCUGAAGAGUAGACACAACCAGGCGUAGAAGGCACAUGAGGAUCACCCAUGUCCAAA [Ex4 Malc#10] ?
21.2

So what does the record say about apparent KD of MS2 coat protein for CUCAAGUUAGGAUAUGUAAGAAAAGAAGAGAAAGAAAAGAAACAGAAGGAACAUGAGGAUCACCCAUGUAAGAA [EteRNA is fun!] ?
22.1

Continuing:
Given AAAAAGUCAGGAUAUGCGAAGGCGUCUGAUAGACGAGGCUAGCAGAAGGGACAUGAGGAUCACCCAUGUGAAGA [Mat - Exclusion 4 - Eli mod - D84] , state its recorded apparent KD of MS2 coat protein.
49.8

Name the reported apparent KD of MS2 coat protein value associated with the sequence AAGGAGUGAGGAUAUCGGAAAGGACACGAAAGUGACAAAGACGAGAAGGCACAUGAGGAUCACCCAUGUAAAAA [milkweed 22]
38.7

Need apparent KD of MS2 coat protein, item GGUUGGCGAGGAUAUACAUGAGGAUCACCCAUGUGAGAGAAAAAAGUGUGAAAGAAAAGUAGAAGGCGCUGACG [salish99-ex3-54]
31

Entry under review: AUGUACCUAGGAUAUACAUGAGGAUCACCCAUGUAUUGGGAGCAAUCAAGUUAAUAUUGUAGAAGGAGGUGAAA [JR_Exc003_Sub316] . Reported apparent KD of MS2 coat protein?
25.7

====

Measured apparent KD of MS2 coat protein, listed per entry.
Test system: MS2 coat protein
Assay: apparent KD of MS2 coat protein; designed switch direction (-1 OFF switch, 1 ON switch): -1; higher = weaker reporter binding
Conditions: Eterna round: R95; input ligand: none
Just the number in nM, nothing appended.

Check out these entries, answers already filled in.
May I ask what apparent KD of MS2 coat protein has been recorded for ACAACAAGCUUUUUGAACGUAGAACAUGCAGCUCUAGAAACAUGAGGAUCACCCAUGUAAGCCAGUUAGAUAGGUGA [JR_SV3TOV2_Sub067] (puzzle: Sensor v3, turn-off variant 2) ?
89.5

Item under review: AGUUGGCGAGGAUAUACAUGAGGAUCACCCAUGUGAAAGAGAAGAGUGAGGAAGAAAAGUAGAAGGCGCUGACA [Mat - Exclusion 3 - Mod of Salish D39] (puzzle: Exclusion 3) . Reported apparent KD of MS2 coat protein?
75.2

I'd like to know its apparent KD of MS2 coat protein. The sequence in question is CUAGAUCUUCGGAUCUAGUACAUGAGGAUCACCCAUGUGACGAGUUUAUGGGUGAACAAGCUUUUUGCUCGUCUUAU [Sensor v3 - Turn-off variant 1 - 7] (puzzle: Sensor v3, turn-off variant 1)
84.8

What does the record list as apparent KD of MS2 coat protein for GAGAAACAUGAGGAUCACCCAUGUGAGGAUAUGUGAGACUAAAGCGCGCAGGCUAAGGACAGAAGGCACAAGGA [Excls1-Ia] (puzzle: Exclusion 1) ?
53

Query: apparent KD of MS2 coat protein; subject: AGUACUAACACGUGAGUGUUAGUACAAUAAGCUUGUGAAACAUGAGGAUCACCCAUGUCCUCAUAAGCUCGUCUUAU [salish99_TOv2_r3_061] (puzzle: Sensor v3, turn-off variant 2)
15.6

Need apparent KD of MS2 coat protein, item ACUAGCUUUUUGCAUAGUAGGUUUGGUGCUUCGUAUGCAACAUGAGGAUCACCCAUGUAUUACUGAUGUCGUCGUUU [JR_SV3TOV2_Sub092] (puzzle: Sensor v3, turn-off variant 2)
27.8

New cases:
Need apparent KD of MS2 coat protein of GAAAAGGUAGGAUAUACGAAAAAAAAGUGUAGAAAAAAAACACAUGAGGAUCACCCAUGUAGAAGGACCAAAAG [salish99_ex2_r3_069] (puzzle: Exclusion 2) , thanks.
32.6

Entry UUUAAUUUUUUUUUUUUACAAGCUUUUUGCUCGUCUUAUACAUGAGGAUCACCCAUGUGGGUGGGAAGUAAAUUAUC [JMF 56] (puzzle: Sensor v3, turn-off variant 2) has what apparent KD of MS2 coat protein?
110

What value of apparent KD of MS2 coat protein has been recorded for this entry: CUCGGGAGUCAGGAUAUCGGCACUUAUCAAUCACGAGAAGGGACGACAUGAGGAUCACCCAUGUGGGAAAAGAA [Ersoar] (puzzle: Exclusion 6)
84.7

State the recorded apparent KD of MS2 coat protein for this entry: CCGAGGUAGCGGUCCUAUGACAUGAGGAUCACCCAUGUACCUCGCUACGAGCUUUUUGCUCGUCUUAAAAUUCUCGG [Mat - Sensor v3 - turn-off var 1 - JL Mod - D29] (puzzle: Sensor v3, turn-off variant 1)
54

Using the record for GGUUGGCGAGGAUAUACAUGAGGAUCACCCAUGUGAGAGUAAAAAGUGAGGAAGAAAAGUAGAAGGCGCUGACG [salish99_ex3_r3_011] (puzzle: Exclusion 3) , report its apparent KD of MS2 coat protein.
44

Reported apparent KD of MS2 coat protein for UCAUACGGUGAGGAUAUCUCCACUAAAGUGUGAAGAGAAGGCGCUACAUGAGGAUCACCCAUGUCUAUGGGCAG [Ex-6 Malc#15] (puzzle: Exclusion 6) : what is it?
109

Need apparent KD of MS2 coat protein of GGGAUGUCAGGAUAUCCGAAAGUCUACCAAUACGGCAGACAGGAGAAGGGACAUGAGGAUCACCCAUGUAAAGA [Quatma] (puzzle: Exclusion 4) , thanks.
52.4

Query: apparent KD of MS2 coat protein; subject: ACUAGCUUUUUGCAUAGUAGGUUUGGUGCUUCGUAUGCUACAUGAGGAUCACCCAUGUUUUACUGAUGUCGUCGUUU [JR_SV3TOV2_Sub094] (puzzle: Sensor v3, turn-off variant 2)
32.3

Any idea what apparent KD of MS2 coat protein was measured for AAAGAACAUGAGGAUCACCCAUGUGAGGAUAUCGAGAAAAGAAAGAAGAAGAAGAAAACGAGAAGGCACAAGAA [The design that might work] (puzzle: Exclusion 1) ?
56.9
